Test system: 755483-174-R-J1-PDC complex spheroid growth, percent test/control;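 also: spheroids exposed to compounds for seven days before readout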
Assay: Anticancer human tumor 755483-174-R-J1-PDC patient-derived rhabdomyosarcoma cell line growth inhibition [Asc]
Settings: second compound 3 µM; first compound 0.0316 µM; hits give low values
Description: Multicellular complex tumor spheroid response to apoptosis pathway targeting inhibitors Alrizomadlin, Pelcitoclax, and Dasminapant in combination with a variety of drugs and investigational agents in selected tumor cell lines […] Compounds. […] If the clinical Cmax for an agent had not been determined, the highest concentration tested was 10 microM. […]
Please go through the items and note down their viability, T/C.
Answers are plain numbers, in %.

Previously resolved entries follow.
C#Cc1c(F)ccc2cc(O)cc(-c3ncc4c(N5CC6CCC(C5)N6)nc(OCC56CCCN5CC(F)C6)nc4c3F)c12 (stereo not given) + CCN1C(C(=O)NC23CCC(C(=O)O)(CC2)CC3)C(c2cccc(Cl)c2F)C2(C(=O)Nc3cc(Cl)ccc32)C12CCCCC2 : 111
CCN1CCN(Cc2ccc(Nc3ncc(F)c(-c4cc(F)c5nc(C)n(C(C)C)c5c4)n3)nc2)CC1 + CCN1C(C(=O)NC23CCC(C(=O)O)(CC2)CC3)C(c2cccc(Cl)c2F)C2(C(=O)Nc3cc(Cl)ccc32)C12CCCCC2 : 98.6
Cn1ncnc1[C@H]1c2n[nH]c(=O)c3cc(F)cc(c23)N[C@@H]1c1ccc(F)cc1 + CCN1C(C(=O)NC23CCC(C(=O)O)(CC2)CC3)C(c2cccc(Cl)c2F)C2(C(=O)Nc3cc(Cl)ccc32)C12CCCCC2 : 41.6
COc1c(OCCCN2CCOCC2)ccc2c3n(c(=NC(=O)c4cnc(N)nc4)nc12)CCN3 + CCN1C(C(=O)NC23CCC(C(=O)O)(CC2)CC3)C(c2cccc(Cl)c2F)C2(C(=O)Nc3cc(Cl)ccc32)C12CCCCC2 : 59.9

Items follow; give viability, T/C for each.
1. O=C(c1cc(Cc2n[nH]c(=O)c3ccccc23)ccc1F)N1CCN(C(=O)C2CC2)CC1 + CCN1C(C(=O)NC23CCC(C(=O)O)(CC2)CC3)C(c2cccc(Cl)c2F)C2(C(=O)Nc3cc(Cl)ccc32)C12CCCCC2
2. NC1CCC(NC2CC2c2ccccc2)CC1 (stereo not given) + CCN1C(C(=O)NC23CCC(C(=O)O)(CC2)CC3)C(c2cccc(Cl)c2F)C2(C(=O)Nc3cc(Cl)ccc32)C12CCCCC2

Data returned:
1: 71.3; 2: 86.6

Would you mind giving viability, T/C for every molecule in the list below?
1. C=CC(=O)N1CCN(c2nc(=O)n(-c3c(C)ccnc3C(C)C)c3nc(-c4c(O)cccc4F)c(F)cc23)C(C)C1 (stereo not given) + CCN1C(C(=O)NC23CCC(C(=O)O)(CC2)CC3)C(c2cccc(Cl)c2F)C2(C(=O)Nc3cc(Cl)ccc32)C12CCCCC2
2. CNC(C)C(=O)NC1CN(S(=O)(=O)c2cccc(S(=O)(=O)N3CCC4CCC(C(=O)NC(c5ccccc5)c5ccccc5)N4C(=O)C(NC(=O)C(C)NC)C3)c2)CCC2CCC(C(=O)NC(c3ccccc3)c3ccccc3)N2C1=O (stereo not given) + CCN1C(C(=O)NC23CCC(C(=O)O)(CC2)CC3)C(c2cccc(Cl)c2F)C2(C(=O)Nc3cc(Cl)ccc32)C12CCCCC2

Data returned:
84.4
38.8

Please state viability, T/C for every molecule in the list that follows.
1. C=C(F)C(=O)N1CCN(c2nc(OCC3CCCN3C)nc3c2CCN(c2cccc4cccc(Cl)c24)C3)CC1CC#N (stereo not given) + CCN1C(C(=O)NC23CCC(C(=O)O)(CC2)CC3)C(c2cccc(Cl)c2F)C2(C(=O)Nc3cc(Cl)ccc32)C12CCCCC2
2. O=C(c1ccc(F)c(F)c1Nc1ccc(I)cc1F)N1CC(O)([C@@H]2CCCCN2)C1 + CCN1C(C(=O)NC23CCC(C(=O)O)(CC2)CC3)C(c2cccc(Cl)c2F)C2(C(=O)Nc3cc(Cl)ccc32)C12CCCCC2

Data returned:
1: 79.5; 2: 90
